System: CHP-212 (Neuroblastoma)
procedure details: combination Emax (second highest fraction inhibited in the dose matrix, 72 h); higher = more inhibition; extreme values may be limits of the assay
measurement type: combination Emax
Give bare numbers.

Look over these answered cases.
COc1cccc(OCCCN)c1-c1cc(Nc2cnc(C#N)cn2)n[nH]1 [Prexasertib] + CN(C)CCCOc1ccc(-c2ccc3ncc4c(c3c2)n(C2CCOCC2)c(=O)n4C)cn1 [AZD0156] (first compound max 1 µM, 7x7, partner max 1 µM)
0.782
CN(C)CCCOc1ccc(-c2ccc3ncc4c(c3c2)n(C2CCOCC2)c(=O)n4C)cn1 [AZD0156] + C=CCn1c(=O)c2cnc(Nc3ccc(N4CCN(C)CC4)cc3)nc2n1-c1cccc(C(C)(C)O)n1 [AZD1775] (first compound max 1 µM, partner max 1 µM)
0.831

Working through the 2 compounds below one at a time, give combination Emax for each.
1. Cc1cc2ncnn2cc1Nc1ncc2c(n1)n(C1CCOCC1)c(=O)n2C [AZD7648] + O=C(c1cc(Cc2n[nH]c(=O)c3ccccc23)ccc1F)N1CCN(C(=O)C2CC2)CC1 [Olaparib] (first compound max 10 µM, 7x7, partner max 10 µM)
2. CN(C)CCCOc1ccc(-c2ccc3ncc4c(c3c2)n(C2CCOCC2)c(=O)n4C)cn1 [AZD0156] + CCN(CCO)CCCOc1ccc2c(Nc3cc(CC(=O)Nc4cccc(F)c4)[nH]n3)ncnc2c1 [AZD2811] (first compound max 1 µM, 7x7, partner max 1 µM)

Out:
1: 0.529; 2: 0.803
